# experimental_system: Epidermal growth factor receptor (Homo sapiens)
# experimental_protocol: Inhibition of wild type human EGFR after 50 mins by HTRF assay
endpoint: IC50 (nM)
Give bare numbers, in nM.

Problem: Find the recorded IC50 belonging to COc1cc(N2CCN(C(C)=O)CC2)ccc1Nc1ncc(Cl)c(-c2c[nH]c3ccccc23)n1 and report it.
Result: 790

---

# experimental_system: Epidermal growth factor receptor (Homo sapiens)
# Assay type: cell-based, LoVo
# Description: Inhibition of wild type EGFR phosphorylation in human LoVo cells after 2 hrs by fluorescence assay
I'd be grateful if you could share measured IC50 for these entries.
One number for each entry, in µM.

Record excerpt, results attached:
C=CC(=O)Nc1cc(Nc2nccc(-c3c[nH]c4ccccc34)n2)c(OC)cc1N1CCN(C)CC1 :: 1.3
COc1ccc(NC(=O)/C=C/CN(C)C)cc1Nc1ncc(F)c(-c2cnn3ccccc23)n1 :: 19

Continue with the next compound.
Problem: Find the recorded IC50 belonging to C=CC(=O)Nc1ccc(OC)c(Nc2ncc(Cl)c(-c3cnn4ccccc34)n2)c1 and report it.
Result: 12.8

---

# experimental_protocol: Half life in phosphate buffer at pH 7.4 at 50 uM by LC-MS analysis in presence of glutathione
# Format: physicochemical
# condition: phosphate buffer with glutathione
endpoint: half-life at 50 µM
The answer consists of two parts: a number and, after it, its unit.

Problem: Find the recorded half-life at 50 µM belonging to CN(C)C/C=C/C(=O)Nc1cc2c(Nc3ccc(F)c(Cl)c3)ncnc2cc1O[C@H]1CCOC1 and report it.
Result: 25 min

---

Please consider the recorded IC50 for Epidermal growth factor receptor (Homo sapiens, UniProt P00533, EX19DEL) in what follows.
Numbers only, in nM.

Record excerpt, results attached:
COc1ccc(NC(=O)CC#N)cc1Nc1ncc(Cl)c(-c2c[nH]c3ccccc23)n1 :: 1800
COc1ccc(NC(=O)/C=C/CN(C)C)cc1Nc1ncc(C)c(-c2cnn3ccccc23)n1 :: 250
C=CC(=O)Nc1ccc(OC)c(Nc2ncc(Cl)c(-c3cnn4ccccc34)n2)c1 :: 150
C=CC(=O)Nc1cc(Nc2nccc(-c3cnn4ccccc34)n2)c(OC)cc1N1CCN(C)CC1 :: 140
COc1ccc(NC(=O)/C=C/CN(C)C)cc1Nc1nccc(-c2cnn3ccccc23)n1 :: 390
C=CC(=O)Nc1ccc(OC)c(Nc2ncc(Cl)c(-c3c[nH]c4ccccc34)n2)c1 :: 29
C=CC(=O)Nc1cc(Nc2nccc(-c3c[nH]c4ccccc34)n2)c(OC)cc1N1CCN(C)CC1 :: 17
C=CC(=O)Nc1ccc(Nc2ncc(Cl)c(-c3c[nH]c4ccccc34)n2)cc1 :: 19000

Hey, quick one: what's IC50 for each of these?
1. COc1ccc(NC(=O)/C=C/CN(C)C)cc1Nc1ncc(F)c(-c2cnn3ccccc23)n1
2. COc1ccc(NC(=O)/C=C/CN(C)C)cc1Nc1ncc(Cl)c(-c2c[nH]c3ccccc23)n1
3. COc1ccc(NC(=O)/C=C/CN(C)C)cc1Nc1ncc([S+](C)[O-])c(-c2cnn3ccccc23)n1 (centres undefined)
4. C=CC(=O)Nc1cc(Nc2ncc(Cl)c(-c3c[nH]c4ccccc34)n2)c(OC)cc1N1CCN(C)CC1
5. C=CC(=O)Nc1cccc(Nc2ncc(Cl)c(-c3c[nH]c4ccccc34)n2)c1
6. C=CC(=O)N1CCc2cc(OC)c(Nc3ncc(Cl)c(-c4c[nH]c5ccccc45)n3)cc21

Result:
1: 380; 2: 85; 3: 1300; 4: 23; 5: 270; 6: 2800

---

# experimental_protocol: Lipophilicity, log D of the compound at pH 7.4
# Format: physicochemical
# condition: buffer
endpoint: logD
Numbers only.

Record excerpt, results attached:
C=CC(=O)Nc1cc(Nc2nccc(-c3c[nH]c4ccccc34)n2)c(OC)cc1N1CCN(C)CC1 :: 3.4
COc1ccc(NC(=O)/C=C/CN(C)C)cc1Nc1ncc(F)c(-c2cnn3ccccc23)n1 :: 3.3

Continue with the next compound.
Problem: Find the recorded logD belonging to COc1ccc(NC(=O)/C=C/CN(C)C)cc1Nc1ncc([S+](C)[O-])c(-c2cnn3ccccc23)n1 (stereo unspecified) and report it.
Result: 1.3

---

# experimental_system: Epidermal growth factor receptor (Homo sapiens, UniProt P00533)
# Sequence (P00533 whole entry): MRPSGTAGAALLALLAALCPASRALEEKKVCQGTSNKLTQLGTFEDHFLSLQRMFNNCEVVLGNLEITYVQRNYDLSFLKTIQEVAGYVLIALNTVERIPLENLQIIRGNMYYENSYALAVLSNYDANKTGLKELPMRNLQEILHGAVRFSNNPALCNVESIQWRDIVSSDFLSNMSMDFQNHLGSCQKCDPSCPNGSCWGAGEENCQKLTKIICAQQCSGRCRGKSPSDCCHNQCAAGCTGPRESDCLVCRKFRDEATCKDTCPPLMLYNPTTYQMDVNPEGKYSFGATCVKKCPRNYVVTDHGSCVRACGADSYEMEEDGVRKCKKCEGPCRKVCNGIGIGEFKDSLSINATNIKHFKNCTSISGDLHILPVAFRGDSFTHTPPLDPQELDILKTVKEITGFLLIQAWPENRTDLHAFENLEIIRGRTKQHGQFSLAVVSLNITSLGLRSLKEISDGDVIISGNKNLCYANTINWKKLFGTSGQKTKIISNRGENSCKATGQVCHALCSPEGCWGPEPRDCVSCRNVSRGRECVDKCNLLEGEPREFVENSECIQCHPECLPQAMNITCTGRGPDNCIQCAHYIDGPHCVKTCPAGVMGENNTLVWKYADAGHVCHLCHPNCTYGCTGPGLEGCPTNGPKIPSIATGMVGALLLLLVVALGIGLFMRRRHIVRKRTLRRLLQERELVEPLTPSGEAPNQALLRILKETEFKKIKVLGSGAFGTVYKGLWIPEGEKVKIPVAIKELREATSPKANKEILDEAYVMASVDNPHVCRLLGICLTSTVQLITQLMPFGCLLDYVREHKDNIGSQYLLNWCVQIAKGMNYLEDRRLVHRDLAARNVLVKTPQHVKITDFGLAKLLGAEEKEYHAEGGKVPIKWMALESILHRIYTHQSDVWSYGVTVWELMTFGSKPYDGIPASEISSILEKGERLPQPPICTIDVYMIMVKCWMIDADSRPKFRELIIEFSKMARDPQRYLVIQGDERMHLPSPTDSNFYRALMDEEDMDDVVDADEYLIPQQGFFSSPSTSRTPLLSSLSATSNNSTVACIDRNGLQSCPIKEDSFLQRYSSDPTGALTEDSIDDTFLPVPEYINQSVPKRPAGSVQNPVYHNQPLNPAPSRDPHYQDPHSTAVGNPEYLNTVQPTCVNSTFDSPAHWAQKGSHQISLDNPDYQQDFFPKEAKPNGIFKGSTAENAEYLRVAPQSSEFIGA
# Assay type: cell-based, LoVo
endpoint: IC50

Record excerpt, results attached:
COc1ccc(NC(=O)/C=C/CN(C)C)cc1Nc1ncc(Cl)c(-c2c[nH]c3ccccc23)n1 :: 1.55 µM
C=CC(=O)Nc1cc(Nc2nccc(-c3cnn4ccccc34)n2)c(OC)cc1N1CCN(C)CC1 :: 19 µM
C=CC(=O)Nc1ccc(Nc2ncc(Cl)c(-c3c[nH]c4ccccc34)n2)cc1 :: > 30 µM
C=CC(=O)Nc1cccc(Nc2ncc(Cl)c(-c3c[nH]c4ccccc34)n2)c1 :: 3.5 µM
COc1ccc(NC(=O)/C=C/CN(C)C)cc1Nc1nccc(-c2cnn3ccccc23)n1 :: 20 µM

Hey, quick one: what's IC50 for each of these?
1. COc1ccc(NC(=O)/C=C/CN(C)C)cc1Nc1ncc([S+](C)[O-])c(-c2cnn3ccccc23)n1 (centres undefined)
2. COc1ccc(NC(=O)CC#N)cc1Nc1ncc(Cl)c(-c2c[nH]c3ccccc23)n1
3. C=CC(=O)Nc1ccc(OC)c(Nc2ncc(Cl)c(-c3c[nH]c4ccccc34)n2)c1
4. COc1ccc(NC(=O)/C=C/CN(C)C)cc1Nc1ncc(C)c(-c2cnn3ccccc23)n1

Result:
["> 30 µM", "> 30 µM", "0.55 µM", "24 µM"]

---

# experimental_protocol: Lipophilicity, log D of the compound at pH 7.4
# Format: physicochemical
# condition: buffer
I'd be grateful if you could share measured logD for these entries.

C=CC(=O)Nc1ccc(OC)c(Nc2ncc(Cl)c(-c3cnn4ccccc34)n2)c1 :: > 4.3

Hey, quick one: what's logD for each of these?
1. C=CC(=O)Nc1ccc(OC)c(Nc2ncc(Cl)c(-c3c[nH]c4ccccc34)n2)c1
2. C=CC(=O)Nc1cccc(Nc2ncc(Cl)c(-c3c[nH]c4ccccc34)n2)c1

Result:
1. > 4.3
2. > 4.3

Attribution: ChEMBL document CHEMBL2424560
